Test system: ACVR1B
Details: concentration: 1 μM, replicates: in singlicate; n = 1;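 further: KINOMEscan kinase panel screen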
Would you mind telling me the reported %Inh of each entry?
One number for each entry, in %.

Known results for molecules:
COc1cccc(-c2ccc3c(NC(=O)C4CC4)n[nH]c3n2)c1 [SB-710903]
0
CCCCc1nn2ncccc2c1-c1ccnc(Nc2ccc(N3CCN(C)CC3)cc2)n1 [GW684941]
67
Cl.c1ccc(-c2ccc3c(Nc4ccc5[nH]ncc5c4)ccnc3c2)nc1 [GW440137]
1
COc1ccc(Nc2nccc(N3CCC(NC(=O)Nc4cccc(OC)c4)C3)n2)cc1 (centres unmarked) [GSK1379742]
0
Cl.Cl.NCC(NCc1ccc(-c2ccnc3[nH]ccc23)s1)c1ccccc1 (centres unmarked) [GSK1321565]
0

Go through the list and state %Inh for each entry.
1. COc1cccc(NC(=O)NC2CCN(c3ccnc(Nc4cc(OC)c(OC)c(OC)c4)n3)C2)c1 (centres unmarked) [GSK1379763]
2. O=C(Nc1n[nH]c2cc(-c3ccoc3)ccc12)C1CC1 [SB-738481]
3. Cc1occc1-c1ncc(OC[C@@H](N)Cc2c[nH]c3ccccc23)cc1-c1ccc2[nH]nc(C)c2c1.O=C(O)C(F)(F)F [GSK682037]

1: 0; 2: 0; 3: 8

====

Would you mind telling me the reported %Inh of each entry?
System: NEK9
Settings: concentration: 1 μM, replicates: in singlicate; n = 1
Answers are plain numbers, in %.

Known results for compounds:
Clc1ccc(-c2nn3ncccc3c2-c2ccnc(Nc3ccc4c(c3)OCCO4)n2)cc1
0
Fc1ccc(-c2ncn(C3CCNCC3)c2-c2ccnc(Oc3ccc(-c4ccccc4)cc3)n2)cc1
7
Nc1ncc(-c2ccc3nccc(-c4ccncc4)c3c2)cc1S(=O)(=O)N1CCOCC1
2
c1ccc(-c2n[nH]cc2Nc2ccnc3ccccc23)nc1
41
COc1ccc(-c2coc3ccc(-c4nnc(SCc5ccc(OC)c(C(F)(F)F)c5)o4)cc23)cc1
0

Go through the list and state %Inh for each entry.
1. Cl.Cl.NCC(NCc1ccc(-c2ccnc3[nH]ccc23)s1)c1ccccc1 (stereo not shown)
2. O=C(Nc1cccc(Oc2ccc3nc(NC(=O)C4CC4)cn3n2)c1)c1ccccc1C(F)(F)F

[6, 0]

Go through the list and state %Inh for each entry.
1. CC(C)(C)c1ccc2nccc(Nc3cccc(O)c3)c2c1
2. O=C(Nc1ccccc1F)NC1CCN(c2ccnc(Nc3ccc(F)cc3)n2)CC1
3. COCCOCCOc1cc2ncc3c4ccc(C#N)cc4[nH]c3c2cc1OC

1. 0
2. 0
3. 7

====

System: HCK
Conditions: concentration: 1 μM, replicates: in singlicate; n = 1
RESULT TYPE: %Inh (%)
Give bare numbers, in %.

Known results for compounds:
Cn1cc(-c2ccc3c(c2)CCN3C(=O)Cc2cccc(F)c2)c2c(N)ncnc21
13
COc1cccc(C(=O)Nc2cccc(Oc3ccc4nc(NC(=O)C5CC5)cn4n3)c2)c1
98.1

Proceeding to the next compound to report its %Inh.
Tell me the measured %Inh of "COc1cccc(C2=C(Nc3ccc(Cl)c(C(=O)O)c3)C(=O)NC2=O)c1" , please.
0

====

System: EPHB1
Conditions: concentration: 1 μM, replicates: in singlicate; n = 1
RESULT TYPE: %Inh (%)
Answers are plain numbers, in %.

Known results for compounds:
COC(=O)Nc1nc2cc(Oc3ccc(NC(=O)Nc4cc(C(F)(F)F)ccc4F)cn3)ccc2[nH]1.Cl.Cl [GW681170]
63
COc1ccc(Nc2nccc(N3CCC(NC(=O)Nc4cccc(OC)c4)C3)n2)cc1 (stereo not shown) [GSK1379742]
9
COc1cc(Nc2nccc(N3CCC(NC(=O)c4cc5ccccc5s4)C3)n2)cc(OC)c1OC (stereo not shown) [GSK1379760]
6
Cn1cc(-c2ccc3c(c2)CCN3C(=O)Cc2cccc(Cl)c2)c2c(N)ncnc21 [GSK2606590]
15
CC(=O)N1CCN(c2ccc(Nc3nccc(-c4sc(C(C)C)nc4-c4cccc(NS(=O)(=O)c5cccc(Cl)c5)c4)n3)cn2)CC1 [GSK1660437]
21
C[C@@H](Oc1cc(-n2cnc3cc(-c4ccnc(NCCS(C)(=O)=O)c4)ccc32)sc1C(N)=O)c1ccccc1Cl [GSK907232]
19

Proceeding to the next compound to report its %Inh.
For EPHB1, provide %Inh of "Cc1ccc(C(=O)N2CC[C@@H](O)C2)cc1-n1c(C)cc(OCc2ccc(F)cc2F)c(Br)c1=O" please.
84

====

Would you mind telling me the reported %Inh of each entry?
Tested on: CSNK1D
Conditions: concentration: 1 μM, replicates: in singlicate; n = 1
Answers are plain numbers, in %.

Known results for molecules:
CCS(=O)(=O)c1ccc(OC)c(Nc2nccc(-c3c(-c4cccc(NC(=O)c5c(F)cccc5F)c4)nn4ncccc34)n2)c1
7
COc1ccc(Nc2nccc(N3CCC(NC(=O)Nc4cccc(OC)c4)C3)n2)cc1 (stereo not shown)
1
Cl.NC(=O)c1cccc(Nc2nccc(Nc3ccc(Oc4c(Cl)cccc4Cl)c(Cl)c3)n2)c1
0
CCCCc1nn2ncccc2c1-c1ccnc(Nc2ccc(N3CCN(C)CC3)cc2)n1
90.9
Cc1ccc(C(=O)Nc2ccc(Nc3ccnc4cc(-c5nccs5)ccc34)cc2O)cc1.Cl
97.1

Go through the list and state %Inh for each entry.
1. COc1ccc(Nc2nccc(NCCNC(=O)c3cc4ccccc4s3)n2)cc1
2. CC(C)c1nc(-c2cccc(NS(=O)(=O)c3c(F)cccc3F)c2F)c(-c2ccnc(Nc3ccc(N4CCOCC4)nc3)n2)s1
3. O=C(Nc1n[nH]c2cc(-c3ccoc3)ccc12)C1CC1
4. Fc1ccc(-c2ncn(C3CCNCC3)c2-c2ccnc(Oc3ccc(-c4ccccc4)cc3)n2)cc1

[8, 0, 2, 96.2]

====

Test system: FGFR4
Details: concentration: 1 μM, replicates: in singlicate; n = 1
RESULT TYPE: %Inh (%)
Give bare numbers, in %.

Known results for molecules:
COc1cc(Nc2ncc3c(C)nc(-c4cc5ccccc5[nH]4)n3n2)cc(OC)c1OC
15
COc1cc(Nc2nccc(-c3c(-c4cccc(NC(=O)c5c(F)cccc5F)c4)nn4ccccc34)n2)cc(OC)c1OC
0
c1ccc(-c2n[nH]cc2Nc2ccnc3ccccc23)nc1
0
CC(C)(C)c1ccc2nccc(Nc3cccc(O)c3)c2c1
0

Tell me the measured %Inh of "Cc1occc1-c1ncc(OC[C@@H](N)Cc2c[nH]c3ccccc23)cc1-c1ccc2[nH]nc(C)c2c1.O=C(O)C(F)(F)F" , please.
0

====

Tested on: ULK1
Conditions: concentration: 1 μM, replicates: in singlicate; n = 1
Would you mind telling me the reported %Inh of each entry?
Give bare numbers, in %.

Known results for compounds:
CCc1ccc(-c2ccc3c(c2)-c2c(cnn2C)S(=O)(=O)N3C)cc1
0
COCCOCCOc1cc2ncc3c4ccc(C#N)cc4[nH]c3c2cc1OC
79
COc1cc(Nc2ncc3c(C)nc(-c4cc5ccccc5[nH]4)n3n2)cc(OC)c1OC
48
CN(C)Cc1ccc(-c2ccc3c(Nc4ccc(Oc5ccccn5)cc4)ccnc3c2)o1
19
Cl.Cl.NCC(NCc1ccc(-c2ccnc3[nH]ccc23)s1)c1ccccc1 (centres unmarked)
67
CSc1cccc2c(-c3ccncn3)c(-c3ccc(F)cc3)nn12
0
COc1cc(Nc2nccc(N3CCC(NC(=O)Nc4cccc(C(C)=O)c4)C3)n2)cc(OC)c1OC (centres unmarked)
18
COc1ccc(CNC(=O)NC2CCN(c3ccnc(Nc4ccc(F)cc4)n3)CC2)cc1
0

Go through the list and state %Inh for each entry.
1. Cc1ccc(C(=O)N2CC[C@@H](O)C2)cc1-n1c(C)cc(OCc2ccc(F)cc2F)c(Br)c1=O
2. C[C@@H](Oc1cc(-n2cnc3cc(-c4ccnc(NCCS(C)(=O)=O)c4)ccc32)sc1C(N)=O)c1ccccc1Cl
3. COc1ccc(Nc2nccc(N3CCC(NC(=O)Nc4cccc(OC)c4)C3)n2)cc1 (centres unmarked)

1: 0; 2: 25; 3: 0

Go through the list and state %Inh for each entry.
1. CC(=O)Nc1nc2cnc(Nc3cc(NC(=O)c4cccc(C5(C#N)CC5)c4Cl)ccc3C)nc2s1
2. Cn1cc(-c2ccc3c(c2)CCN3C(=O)Cc2cccc(Cl)c2)c2c(N)ncnc21
3. Cc1occc1-c1ncc(OC[C@@H](N)Cc2c[nH]c3ccccc23)cc1-c1ccc2[nH]nc(C)c2c1.O=C(O)C(F)(F)F

1: 0; 2: 11; 3: 4

====

Would you mind telling me the reported %Inh of each entry?
System: ACVRL1
Settings: concentration: 1 μM, replicates: in singlicate; n = 1
Answers are plain numbers, in %.

Known results for compounds:
CNC(=O)c1ccccc1Nc1nc(Nc2ccc(N3CCOCC3)cc2)ncc1Cl.Cl
42
O=C(Nc1cccc(Oc2ccc3nc(NC(=O)C4CC4)cn3n2)c1)c1ccccc1C(F)(F)F
0
CSc1cccc2c(-c3ccncn3)c(-c3ccc(F)cc3)nn12
0
COc1cc(Nc2nccc(-c3c(-c4cccc(NC(=O)c5c(F)cccc5F)c4)nn4ccccc34)n2)cc(OC)c1OC
25
CN1CCN(Cc2cccc(-c3ccc4c(Nc5ccc(Oc6ccccc6)cc5)ccnc4c3)c2)CC1
0
CN(C)S(=O)(=O)c1cc(-c2ccc3nccc(-c4cccc(S(N)(=O)=O)c4)c3c2)cnc1N
0

Go through the list and state %Inh for each entry.
1. c1ccc(-c2n[nH]cc2Nc2ccnc3ccccc23)nc1
2. Cl.Cl.NCC(NCc1ccc(-c2ccnc3[nH]ccc23)s1)c1ccccc1 (centres unmarked)

1: 0; 2: 0
